Biological target: T1, human BR3 expressed on cells (human, UniProt Q96RJ3 1-184)
T1 construct: whole, on cells; also called BR3 on BJAB cells; cell surface BR3
Assay: BJAB cells, competition with biotin-BAFF
experimentalReadout: IC50 (nM)

| binder | endpointUnit | recordedResult |
| --- | --- | --- |
| murine monoclonal antibody 9.1 (antibody, V domains shown, mouse hybridoma IgG; also called 9.1 IgG; mu9.1) VH: EVKLVESGGGLVQPGGSLRLSCAISGFTVTAYYMSWVRQPPGKALEWLGFIRDKANGYTTEYNPSVKGRFTISRDNSQSIFYLQMNTLRAEDSATYYCAQVRRALDYWGQGTTVTVSA VL: DIVMSQSPSSLAVSVGEKVTMSCKSSQSLLYSSNQNNYLAWYQQKPGQSPKLLIYWASTRESGVPDRFTGSGSGTDFTLTISSVKAEDLAVYYCQQYYTYPYTFGGGT | nM | 1.3 |
| V3-1m (antibody, mouse IgG2a, V domains shown, also called mV3-1; V3-1 (IgG)) VH: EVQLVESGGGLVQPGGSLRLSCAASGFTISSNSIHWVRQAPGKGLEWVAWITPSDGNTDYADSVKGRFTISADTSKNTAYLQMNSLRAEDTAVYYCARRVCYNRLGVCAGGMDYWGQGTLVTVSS VL: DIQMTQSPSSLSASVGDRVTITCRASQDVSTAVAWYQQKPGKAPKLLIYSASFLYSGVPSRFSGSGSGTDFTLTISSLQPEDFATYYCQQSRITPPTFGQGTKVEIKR | nM | 2.47 |
| chimeric 2.1 IgG (antibody, V domains shown, also called Ch 2.1 IgG; ch 2.1) VH: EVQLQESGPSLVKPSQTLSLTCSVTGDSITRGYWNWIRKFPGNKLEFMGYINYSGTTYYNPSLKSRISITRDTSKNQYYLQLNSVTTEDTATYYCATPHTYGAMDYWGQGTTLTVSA VL: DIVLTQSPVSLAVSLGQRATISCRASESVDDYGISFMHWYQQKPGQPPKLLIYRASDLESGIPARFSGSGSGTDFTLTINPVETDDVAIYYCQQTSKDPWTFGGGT | nM | 0.23 |
| murine monoclonal antibody 2.1 (antibody, V domains shown, mouse hybridoma IgG; also called 2.1 IgG; mu2.1) VH: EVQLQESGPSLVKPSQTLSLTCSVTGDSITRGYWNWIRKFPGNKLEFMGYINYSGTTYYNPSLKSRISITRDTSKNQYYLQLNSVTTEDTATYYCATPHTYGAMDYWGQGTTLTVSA VL: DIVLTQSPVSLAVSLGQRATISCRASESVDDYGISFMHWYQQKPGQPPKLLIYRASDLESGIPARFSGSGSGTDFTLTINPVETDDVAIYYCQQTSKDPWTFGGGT | nM | 0.25 |
| murine monoclonal antibody 11G9 (antibody, V domains shown, mouse hybridoma IgG; also called mu11G9) VH: DVQLQESGPSLVKPSQTLSLTCSVTGDSITSGYWNWIRKFPGNKLEYMGYISYSGSTYYNPSLKSRISITRDTSKNQFYLQLLSVTTEDTATYYCAGLDGLYWYFDVWGAGTLVTVSS VL: DIVMTQTPLSLPVSLGDQASISCRSSQSLVHSNGNTYLHWYLQKPGQSPKLLIYKVSNRFSGVPDRFSGSGSGTDFTLKISRVEAEDLGVYFCSQSTHVPPFTFGSGT | nM | 0.38 |
| chimeric 11G9 IgG (antibody, V domains shown, also called Ch 11G9 IgG) VH: DVQLQESGPSLVKPSQTLSLTCSVTGDSITSGYWNWIRKFPGNKLEYMGYISYSGSTYYNPSLKSRISITRDTSKNQFYLQLLSVTTEDTATYYCAGLDGLYWYFDVWGAGTLVTVSS VL: DIVMTQTPLSLPVSLGDQASISCRSSQSLVHSNGNTYLHWYLQKPGQSPKLLIYKVSNRFSGVPDRFSGSGSGTDFTLKISRVEAEDLGVYFCSQSTHVPPFTFGSGT | nM | 0.45 |
| V3-1h (antibody, human IgG1, V domains shown) VH: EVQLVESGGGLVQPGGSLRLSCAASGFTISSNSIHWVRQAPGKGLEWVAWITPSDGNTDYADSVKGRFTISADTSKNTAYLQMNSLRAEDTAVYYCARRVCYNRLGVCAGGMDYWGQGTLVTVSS VL: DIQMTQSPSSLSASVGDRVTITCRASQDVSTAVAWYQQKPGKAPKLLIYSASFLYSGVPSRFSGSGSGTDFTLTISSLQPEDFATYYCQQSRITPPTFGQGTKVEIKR | nM | 5.97 |
